Entries annotated with measured viability, T/C
- System: 323965-272-R-J2-PDC complex spheroid growth, % test/control;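 note: compound exposure lasted 7 days starting three days after spheroid seeding; 100% = DMSO vehicle control wells with viability set relative to vehicle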
- PROTOCOL SUMMARY: Anticancer human tumor 323965-272-R-J2-PDC patient-derived pancreatic carcinoma cell line growth inhibition [Asc]
- CONDITION DESCRIPTION: second compound 0.0316 µM; first compound 0.00316 µM; stronger effect = lower value
Field: numeric (%). Do not append units.

COMPOUND	UNIT	viability, T/C
Cn1ncnc1[C@H]1c2n[nH]c(=O)c3cc(F)cc(c23)N[C@@H]1c1ccc(F)cc1 + Cc1c(S(C)(=O)=O)c(-c2cc(F)cc(N3CCN(c4ccc(NS(=O)(=O)c5ccc(NC(CCN6CCC(C(=O)OCCCP(=O)(O)O)CC6)CSc6ccccc6)c(S(=O)(=O)C(F)(F)F)c5)cc4)CC3)c2)c(-c2ccc(Cl)cc2)n1C(C)C	%	105
NC1CCC(NC2CC2c2ccccc2)CC1 (centres undefined) + CNC(C)C(=O)NC1CN(S(=O)(=O)c2cccc(S(=O)(=O)N3CCC4CCC(C(=O)NC(c5ccccc5)c5ccccc5)N4C(=O)C(NC(=O)C(C)NC)C3)c2)CCC2CCC(C(=O)NC(c3ccccc3)c3ccccc3)N2C1=O	%	91.5
Cn1ncnc1[C@H]1c2n[nH]c(=O)c3cc(F)cc(c23)N[C@@H]1c1ccc(F)cc1 + CNC(C)C(=O)NC1CN(S(=O)(=O)c2cccc(S(=O)(=O)N3CCC4CCC(C(=O)NC(c5ccccc5)c5ccccc5)N4C(=O)C(NC(=O)C(C)NC)C3)c2)CCC2CCC(C(=O)NC(c3ccccc3)c3ccccc3)N2C1=O	%	87.6

(Q) Fill blank: measured viability, T/C of the compound O=C(c1ccc(F)c(F)c1Nc1ccc(I)cc1F)N1CC(O)([C@@H]2CCCCN2)C1 + Cc1c(S(C)(=O)=O)c(-c2cc(F)cc(N3CCN(c4ccc(NS(=O)(=O)c5ccc(NC(CCN6CCC(C(=O)OCCCP(=O)(O)O)CC6)CSc6ccccc6)c(S(=O)(=O)C(F)(F)F)c5)cc4)CC3)c2)c(-c2ccc(Cl)cc2)n1C(C)C is ____.
(A) 91
